The following compounds are listed with their measured TGI values.
# Tested on: RPMI-8226 leukemia
# test.description: NCI tumour cell line growth inhibition, 48 h

{"compound": "Brc1cccc(C2ON=C(c3ccccc3)N2C23CC4CC(CC(C4)C2)C3)c1 (stereo not drawn)", "TGI": "> 10 µM"}
{"compound": "O=c1c(Cc2ccc(Cl)cc2)nnc2sc(-c3ccc(-c4ccc(Cl)cc4Cl)o3)nn12", "TGI": "> 100 µM"}
{"compound": "COc1cccc(N2C(=O)C3C4C=C5c6ccccc6N(c6ccccc6)C5(C3C2=O)[C@H]2C(=O)N(c3cccc(OC)c3)C(=O)[C@@H]42)c1 (stereo partly drawn)", "TGI": "> 100 µM"}
{"compound": "CC(=O)OC1[C@H](OC(C)=O)C2=C(C)[C@@H](OC(C)=O)C[C@@]2(C(C)(C)O)[C@@H](OC(C)=O)[C@H]2[C@@]1(C)[C@@H](OC(C)=O)CC(OC(C)=O)[C@]21CO1 (stereo partly drawn)", "TGI": "> 100 µM"}
{"compound": "C=C(Cl)C(Cl)(CCl)CCC(Br)C(C)(C)Br (stereo not drawn)", "TGI": "> 10 µM"}
{"compound": "O=C1CSC(c2cccc(Cl)c2)N1c1ccc(-c2ccc(-n3c(-c4ccccc4)nc4ccccc4c3=O)cc2)cc1 (stereo not drawn)", "TGI": "> 100 µM"}
{"compound": "COc1ccc(C(=O)c2sc3nc(-c4cccs4)ccc3c2N)cc1OC", "TGI": "> 100 µM"}
{"compound": "OCCN(CCO)c1cccc(N(CCO)CCO)n1", "TGI": "> 100 µM"}
